test method notes: Stability of the analytes in rat plasma QC samples
Assay type: in vitro ADME
assay setup: −20 °C for 21 d, high QC spiked concentration
Lab note: compare Long-tern stability: Measured concentration against 300 ng/mL. Equal or greater, write 1. Smaller, write 0.

Look over these answered cases.
O=c1cc(-c2ccc(O)c(O)c2)oc2cc(O)cc(O)c12: 0
O=c1c(O)c(-c2ccc(O)c(O)c2)oc2cc(O)cc(O)c12: 0
C[C@@H]1O[C@@H](O[C@@H]2[C@@H](O)[C@H](OCCc3ccc(O)c(O)c3)O[C@H](CO)[C@H]2OC(=O)/C=C/c2ccc(O)c(O)c2)[C@H](O)[C@H](O)[C@H]1O [Acteoside, acteoside]: 1
COc1ccc(-c2cc(=O)c3c(O)cc(O)cc3o2)cc1: 0
O=c1cc(-c2ccc(O)cc2)oc2cc(O)cc(O)c12: 1

Now turn to the next compound.
Prompt line: hey, is Long-tern stability: Measured concentration for this one >= 300 ng/mL? `C[C@@H]1O[C@@H](OC[C@H]2O[C@@H](Oc3c(-c4ccc(O)c(O)c4)oc4cc(O)cc(O)c4c3=O)[C@H](O)[C@@H](O)[C@@H]2O)[C@H](O)[C@H](O)[C@H]1O`
Response line: 1

====

test method notes: Stability of the analytes in rat plasma QC samples
Format: in vitro ADME
assay setup: relative error, −20 °C for 21 d, low QC spiked concentration
observed property: Long-tern stability: Accuracy (%)
Form entry: value (%) — number only.

Examples with their reported Long-tern stability: Accuracy follow.
C[C@@H]1O[C@@H](O[C@@H]2[C@@H](O)[C@H](OCCc3ccc(O)c(O)c3)O[C@H](CO)[C@H]2OC(=O)/C=C/c2ccc(O)c(O)c2)[C@H](O)[C@H](O)[C@H]1O [Acteoside, acteoside]: 1.97
O=c1cc(-c2ccc(O)cc2)oc2cc(O)cc(O)c12 [Apigenin, apigenin]: 7.06
O=c1cc(-c2ccc(O)c(O)c2)oc2cc(O)cc(O)c12 [Luteolin, luteolin]: 6.01

Prompt line: Give its Long-tern stability: Accuracy value. Item: O=c1c(O)c(-c2ccc(O)c(O)c2)oc2cc(O)cc(O)c12 [Quercetin, quercetin]
Response line: 3.03

Prompt line: Give its Long-tern stability: Accuracy value. Item: C[C@@H]1O[C@@H](OC[C@H]2O[C@@H](Oc3c(-c4ccc(O)c(O)c4)oc4cc(O)cc(O)c4c3=O)[C@H](O)[C@@H](O)[C@@H]2O)[C@H](O)[C@H](O)[C@H]1O [Rutin]
Response line: 4.30

Prompt line: Give its Long-tern stability: Accuracy value. Item: COc1ccc(-c2cc(=O)c3c(O)cc(O)cc3o2)cc1 [Acacetin, acacetin]
Response line: 4.11

====

test method notes: Stability of the analytes in rat plasma QC samples
Type: in vitro ADME
assay setup: relative error, 3 free thaw cycles, medium QC spiked concentration
observed property: Free-thaw stability: Accuracy
Answer by giving the amount and then stating its unit.

Examples with their reported Free-thaw stability: Accuracy follow.
C[C@@H]1O[C@@H](O[C@@H]2[C@@H](O)[C@H](OCCc3ccc(O)c(O)c3)O[C@H](CO)[C@H]2OC(=O)/C=C/c2ccc(O)c(O)c2)[C@H](O)[C@H](O)[C@H]1O [Acteoside, acteoside]: 4.92%
COc1ccc(-c2cc(=O)c3c(O)cc(O)cc3o2)cc1 [Acacetin, acacetin]: 3.13%
O=c1c(O)c(-c2ccc(O)c(O)c2)oc2cc(O)cc(O)c12 [Quercetin, quercetin]: 6.72%
C[C@@H]1O[C@@H](OC[C@H]2O[C@@H](Oc3c(-c4ccc(O)c(O)c4)oc4cc(O)cc(O)c4c3=O)[C@H](O)[C@@H](O)[C@@H]2O)[C@H](O)[C@H](O)[C@H]1O [Rutin]: 7.54%
O=c1cc(-c2ccc(O)cc2)oc2cc(O)cc(O)c12 [Apigenin, apigenin]: 6.63%

Next compound, Free-thaw stability: Accuracy to be filled in.
Prompt line: Give its Free-thaw stability: Accuracy value. Item: O=c1cc(-c2ccc(O)c(O)c2)oc2cc(O)cc(O)c12 [Luteolin, luteolin]
Response line: 6.21%
